Molecular target: Homeobox protein Nkx-2.5 (Mus musculus)
Assay: Modulation of mouse NKX2-5 expressed in Chlorocebus aethiops COS1 cells harboring 3xHA reporter gene assessed as protein-induced transcriptional activity at 10 uM after 24 hrs by luciferase reporter gene assay relative to control
Type: cell-based
Classify by Activity. Ranges: I = under 50%, II = from 50% up to 90%, III = 90% and over

// below: answered compounds
- Smiles Data: "CCN(CC)c1ccc(NC(=O)c2cc(C)sc2-c2cc(C)on2)cc1"
  System Tested: "Homeobox protein Nkx-2.5 (Mus musculus)"
  Class Name: "III"
- Smiles Data: "Cc1onc(-c2ccccc2)c1C(=O)Nc1ccc(C#C[Si](C)(C)C)cc1"
  System Tested: "Homeobox protein Nkx-2.5 (Mus musculus)"
  Class Name: "II"
- Smiles Data: "CCN(CC)c1ccc(NC(=O)c2c(C)nc3ccccn23)cc1"
  System Tested: "Homeobox protein Nkx-2.5 (Mus musculus)"
  Class Name: "II"
- Smiles Data: "CCC(=O)c1ccc(OCc2c(-c3ccccc3)noc2C)cc1"
  System Tested: "Homeobox protein Nkx-2.5 (Mus musculus)"
  Class Name: "II"
- Smiles Data: "C=CCN(Cc1ccc(N(CC)CC)cc1)c1c(-c2ccccc2)noc1C"
  System Tested: "Homeobox protein Nkx-2.5 (Mus musculus)"
  Class Name: "II"

Prompt: Note: place this compound into its band. Item: `CCN(CC)c1ccc(NC(=O)c2c(-c3ccsc3)noc2C)cc1`
Response: II

Prompt: Next up: `Cc1onc(-c2ccccc2)c1COc1ccc(C(=O)OCCCC#N)cc1`
Response: II

Prompt: Next up: `CC(=O)COC(=O)c1ccc(OCc2c(-c3ccccc3)noc2C)cc1`
Response: I

Prompt: Next up: `CCN(CC)c1ccc(NC(=O)c2c(-c3ccc(F)cc3)noc2C)cc1`
Response: I

Prompt: Next up: `CCN(CC)c1ccc(NC(=O)c2c(-c3cc(C)on3)noc2C)cc1`
Response: II

Prompt: Next up: `CCN(CC)c1ccc(NC(=O)c2c(C)noc2-c2cc(C)on2)cc1`
Response: II

Prompt: Next up: `CCN(CC)c1ccc(NC(=O)c2c(-c3ccncc3)noc2C)cc1`
Response: II

Prompt: Next up: `CCN(CC)c1ccc(NC(=O)c2cc(C)oc2-c2ccccc2)cc1`
Response: I

Prompt: Next up: `CCN(CC)c1ccc(CN(C(=O)C(F)(F)F)c2c(-c3ccccc3)noc2C)cc1`
Response: II

Prompt: Next up: `CCN(CC)c1ccc(N(C)C(=O)c2c(-c3ccccc3)noc2C)cc1`
Response: III

Prompt: Next up: `CCN(CC)c1ccc(NC(=O)c2c(-c3ccccc3Cl)noc2C)cc1`
Response: III

Prompt: Next up: `CCN(CC)c1ccc(NC(=O)c2csc(C)c2-c2ccccc2)cc1`
Response: I

Prompt: Next up: `CCN(CC)c1ccc(NC(=O)c2c(-c3ccoc3)noc2C)cc1`
Response: III

Prompt: Next up: `Cc1onc(-c2ccccc2)c1C(=O)Nc1nc(C(C)(C)C)cs1`
Response: III

Prompt: Next up: `CCN(CC)c1ccc(NC(=O)c2cn(C)nc2-c2cc(C)on2)cc1`
Response: III
